Target: T1, human CD33 (human, UniProt P20138 18-259, limits assumed)
T1 construct: Human CD33 immobilized on the BLI sensor tip or the BIAcore C1 chip; also called Siglec-3
T1 sequence (P20138 18-259 limits assumed): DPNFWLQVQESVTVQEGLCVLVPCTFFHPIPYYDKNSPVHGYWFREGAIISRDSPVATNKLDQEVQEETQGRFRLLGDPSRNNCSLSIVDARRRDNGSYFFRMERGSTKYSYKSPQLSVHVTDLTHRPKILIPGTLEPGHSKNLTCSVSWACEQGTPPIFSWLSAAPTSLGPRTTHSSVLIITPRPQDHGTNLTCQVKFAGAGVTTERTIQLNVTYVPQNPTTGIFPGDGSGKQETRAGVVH
Test: BLI (ForteBio), Fab 100 nM on immobilized CD33

[
  {
    "binder": "AB-14.5 (antibody, V domains shown) VH: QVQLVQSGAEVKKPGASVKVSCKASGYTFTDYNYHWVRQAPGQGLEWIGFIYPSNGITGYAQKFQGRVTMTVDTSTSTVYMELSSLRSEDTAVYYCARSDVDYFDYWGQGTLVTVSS VL: DIQMTQSPSSLSASVGDRVTITCRASQDVSTSTYSYMHWYQRKPGKAPKLLIKYASNLESGVPSRFSGSGSGTDFTLTISSLQPEDFATYYCQHSWEIPLTFGQGTKLEIK",
    "kon [M⁻¹ s⁻¹]": 945000
  },
  {
    "binder": "AB-14.1 (antibody, V domains shown) VH: QVQLVQSGAEVKKPGASVKVSCKASGATFTDYNFHWVRQAPGQGLEWIGFIYPSNGITGYAQDFQGRVTMTVDTSTSTVYMELSSLRSEDTAVYYCARSDVDYFDYWGQGTLVTVSS VL: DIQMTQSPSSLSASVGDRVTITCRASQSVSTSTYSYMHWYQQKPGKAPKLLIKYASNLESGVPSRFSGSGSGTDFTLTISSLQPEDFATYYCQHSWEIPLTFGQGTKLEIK",
    "kon [M⁻¹ s⁻¹]": 670000
  },
  {
    "binder": "AB-14.4 (antibody, V domains shown) VH: QVQLVQSGAEVKKPGASVKVSCKASGYTFTDYNYHWVRQAPGQGLEWIGFIYPSNGITGYAQKFQGRVTMTVDTSTSTVYMELSSLRSEDTAVYYCADSTVDYFDYWGQGTLVTVSS VL: DIQMTQSPSSLSASVGDRVTITCRASQDVSTSTYSYMHWYQQKPGKAPKLLIKYVSNLESGVPSRFSGSGSGTDFTLTISSLQPEDFATYYCQHSWEIPLTFGQGTKLEIK",
    "kon [M⁻¹ s⁻¹]": 895000
  }
]
